- targetOrSystem: Phosphatidylinositol 4,5-bisphosphate 3-kinase catalytic subunit delta isoform (Homo sapiens) (UniProt O00329)
- Sequence (O00329 whole entry, canonical isoform): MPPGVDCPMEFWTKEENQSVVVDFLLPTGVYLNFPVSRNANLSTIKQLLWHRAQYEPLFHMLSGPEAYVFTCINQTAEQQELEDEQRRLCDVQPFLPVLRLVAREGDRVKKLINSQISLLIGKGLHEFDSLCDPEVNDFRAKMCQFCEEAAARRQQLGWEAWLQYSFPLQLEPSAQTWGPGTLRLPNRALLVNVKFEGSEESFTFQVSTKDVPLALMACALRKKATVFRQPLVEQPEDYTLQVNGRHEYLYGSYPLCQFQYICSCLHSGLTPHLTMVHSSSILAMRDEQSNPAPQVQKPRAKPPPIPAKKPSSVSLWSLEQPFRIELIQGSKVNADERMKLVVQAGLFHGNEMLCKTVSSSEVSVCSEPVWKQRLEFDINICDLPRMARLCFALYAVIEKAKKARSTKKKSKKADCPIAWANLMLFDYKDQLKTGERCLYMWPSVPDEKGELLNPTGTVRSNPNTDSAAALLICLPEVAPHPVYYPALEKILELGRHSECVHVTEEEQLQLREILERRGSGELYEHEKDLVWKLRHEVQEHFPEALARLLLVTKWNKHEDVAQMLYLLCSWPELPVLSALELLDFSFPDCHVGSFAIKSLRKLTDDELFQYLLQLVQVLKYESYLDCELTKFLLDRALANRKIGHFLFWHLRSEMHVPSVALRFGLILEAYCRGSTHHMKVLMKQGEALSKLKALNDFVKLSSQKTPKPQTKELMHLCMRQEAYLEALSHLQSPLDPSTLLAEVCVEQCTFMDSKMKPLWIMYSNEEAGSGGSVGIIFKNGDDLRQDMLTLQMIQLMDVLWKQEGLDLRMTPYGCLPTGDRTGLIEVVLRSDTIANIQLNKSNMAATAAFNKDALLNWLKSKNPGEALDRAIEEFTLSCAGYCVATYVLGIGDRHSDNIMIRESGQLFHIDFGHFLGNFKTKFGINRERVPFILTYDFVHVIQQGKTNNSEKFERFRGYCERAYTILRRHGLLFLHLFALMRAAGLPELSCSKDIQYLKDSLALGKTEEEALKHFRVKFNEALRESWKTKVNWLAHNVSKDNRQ
- testSummary: Inhibition of PI3Kdelta (unknown origin) at 200 nM by ADP-gloassay relative to control
The source made the active and inactive calls. No cut-off for these calls is given here.
resultType: inhibition

CN(C)CC(=O)Nc1ccc(-n2c(=O)ccc3oc4ccc(C5CCNCC5)cc4c32)cc1 : inactive
COc1ccc(-c2cnc3oc4ccc(=O)n(-c5ccc(NC(=O)CN(C)C)cc5)c4c3c2)cn1 : inactive
C=CC(=O)Nc1cccc(-n2c(=O)ccc3oc4ccc(-c5ccc(F)nc5)cc4c32)c1 : 34%
CN(C)CC(=O)Nc1ccc(-n2c(=O)ccc3oc4ccc(-c5ccc(O)cc5)cc4c32)cc1 : inactive

====

Recorded IC50, one value per entry.
- targetOrSystem: Phosphatidylinositol 4,5-bisphosphate 3-kinase catalytic subunit delta isoform (Homo sapiens, UniProt O00329)
- Sequence (O00329 whole entry, canonical isoform): as above
- testSummary: Inhibition of PI3Kdelta (unknown origin) by ADP-gloassay
Just the number please, in nM, no unit attached.

Examples with their reported IC50 follow.
C=CC(=O)Nc1ccc(-n2c(=O)ccc3oc4ncc(-c5cccnc5)cc4c32)cc1 : 1000
C=CC(=O)Nc1cccc(-n2c(=O)ccc3oc4ccc(-c5ccc(F)nc5)cc4c32)c1 : 920
C=CC(=O)Nc1cccc(-n2c(=O)ccc3oc4ccc(-c5cccnc5)cc4c32)c1 : 170

Here is the next item to consider.
So what does the record say about IC50 for "C=CC(=O)Nc1ccc(-n2c(=O)ccc3oc4ccc(-c5ccc(F)nc5)cc4c32)cc1" ? 1270

====

- targetOrSystem: Phosphatidylinositol 4,5-bisphosphate 3-kinase catalytic subunit gamma isoform (Homo sapiens)
- Sequence (P48736 whole entry, canonical isoform): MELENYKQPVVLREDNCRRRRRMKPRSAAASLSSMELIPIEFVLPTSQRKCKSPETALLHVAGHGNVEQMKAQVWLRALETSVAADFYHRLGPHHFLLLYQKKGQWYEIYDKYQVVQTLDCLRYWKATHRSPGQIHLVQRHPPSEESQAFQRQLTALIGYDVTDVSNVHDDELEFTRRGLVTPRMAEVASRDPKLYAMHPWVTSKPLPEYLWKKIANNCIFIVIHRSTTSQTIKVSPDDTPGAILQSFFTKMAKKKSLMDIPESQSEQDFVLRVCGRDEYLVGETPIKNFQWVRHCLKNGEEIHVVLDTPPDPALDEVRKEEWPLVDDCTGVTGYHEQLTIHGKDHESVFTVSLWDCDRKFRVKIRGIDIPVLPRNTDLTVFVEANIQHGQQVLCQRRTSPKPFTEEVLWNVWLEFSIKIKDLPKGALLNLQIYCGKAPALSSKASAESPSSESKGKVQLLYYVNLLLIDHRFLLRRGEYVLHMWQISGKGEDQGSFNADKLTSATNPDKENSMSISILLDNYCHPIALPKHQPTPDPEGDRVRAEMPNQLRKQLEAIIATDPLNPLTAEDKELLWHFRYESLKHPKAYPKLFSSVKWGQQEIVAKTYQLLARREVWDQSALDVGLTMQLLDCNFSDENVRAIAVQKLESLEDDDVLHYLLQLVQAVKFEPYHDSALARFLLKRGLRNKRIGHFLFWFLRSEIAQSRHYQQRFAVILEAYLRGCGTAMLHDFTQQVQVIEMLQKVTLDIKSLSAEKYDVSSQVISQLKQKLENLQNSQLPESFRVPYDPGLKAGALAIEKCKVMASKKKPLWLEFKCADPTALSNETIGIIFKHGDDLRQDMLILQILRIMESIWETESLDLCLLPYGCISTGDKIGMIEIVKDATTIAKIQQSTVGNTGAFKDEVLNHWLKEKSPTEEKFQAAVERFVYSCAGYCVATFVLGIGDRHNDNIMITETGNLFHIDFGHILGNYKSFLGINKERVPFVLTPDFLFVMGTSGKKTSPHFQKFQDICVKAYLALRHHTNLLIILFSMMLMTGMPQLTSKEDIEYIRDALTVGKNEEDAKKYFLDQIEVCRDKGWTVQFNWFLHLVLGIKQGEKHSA
- testSummary: Inhibition of PI3Kgamma (unknown origin) by ADP-gloassay
resultType: pIC50
The read-out pIC50 is expressed as -log10 of concentration in moles per litre.

So what does the record say about pIC50 for "C=CC(=O)Nc1cccc(-n2c(=O)ccc3oc4ccc(-c5cccnc5)cc4c32)c1" ? 5.66

====

- Test system: Raji
- testSummary: Antiproliferative activity against human Raji cells after 48 hrs by CCK8 assay
- Type: functional, cell-based
Please assign FALSE whenever IC50 is at or above 2000 nM, and TRUE whenever it is below.

CN(C)CC(=O)Nc1ccc(-n2c(=O)ccc3oc4ccc(-c5cccc6[nH]ccc56)cc4c32)cc1 : FALSE
Cn1c(=O)n(-c2ccc(C(C)(C)C#N)cc2)c2c3cc(-c4cnc5ccccc5c4)ccc3ncc21 : TRUE

Lab note: IC50 threshold 2000 nM. Does this compound come in strictly under it? "CN(C)CC(=O)Nc1ccc(-n2c(=O)ccc3oc4ccc(-c5ccc(O)cc5)cc4c32)cc1" TRUE

Lab note: IC50 threshold 2000 nM. Does this compound come in strictly under it? "CN(C)CC(=O)Nc1ccc(-n2c(=O)ccc3oc4ccc(C5CCNCC5)cc4c32)cc1" FALSE

Lab note: IC50 threshold 2000 nM. Does this compound come in strictly under it? "CN(C)CC(=O)Nc1ccc(-n2c(=O)ccc3oc4ccc(-c5cccnc5)cc4c32)cc1" FALSE

====

- targetOrSystem: Tyrosine-protein kinase BTK (Homo sapiens, UniProt Q06187)
- Sequence (Q06187 whole entry): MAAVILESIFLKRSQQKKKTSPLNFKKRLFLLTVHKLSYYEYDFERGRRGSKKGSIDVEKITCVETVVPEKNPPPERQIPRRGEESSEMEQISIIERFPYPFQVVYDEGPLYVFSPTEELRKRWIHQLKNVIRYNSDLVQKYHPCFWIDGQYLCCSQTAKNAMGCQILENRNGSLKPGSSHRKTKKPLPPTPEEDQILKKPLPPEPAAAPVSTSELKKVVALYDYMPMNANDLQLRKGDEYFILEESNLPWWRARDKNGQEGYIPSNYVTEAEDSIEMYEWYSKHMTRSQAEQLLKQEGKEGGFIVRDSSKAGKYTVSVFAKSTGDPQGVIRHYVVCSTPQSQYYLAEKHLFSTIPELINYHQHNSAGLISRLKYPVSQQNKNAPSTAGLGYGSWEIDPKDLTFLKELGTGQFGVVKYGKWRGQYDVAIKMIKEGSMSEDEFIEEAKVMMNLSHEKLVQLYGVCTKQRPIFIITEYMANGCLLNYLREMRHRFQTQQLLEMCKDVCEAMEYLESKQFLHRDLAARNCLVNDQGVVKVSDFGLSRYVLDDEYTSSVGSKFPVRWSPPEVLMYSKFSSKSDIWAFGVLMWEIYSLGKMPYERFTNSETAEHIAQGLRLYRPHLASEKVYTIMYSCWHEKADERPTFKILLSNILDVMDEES
- conditionParameters: at 200 nM
- Description: Inhibition of BTK (unknown origin) at 200 nM by ADP-gloassay relative to control
Recorded inhibition, one value per entry.
Just the number please, in %, no unit attached.

Examples with their reported inhibition follow.
CN(C)CC(=O)Nc1ccc(-n2c(=O)ccc3oc4ccc(-c5ccc(O)cc5)cc4c32)cc1 : 51.7
C=CC(=O)Nc1ccc(-n2c(=O)ccc3oc4ncc(-c5cccnc5)cc4c32)cc1 : 38.7
CN(C)CC(=O)Nc1ccc(-n2c(=O)ccc3oc4ccc(C5CCN(C(=O)OC(C)(C)C)CC5)cc4c32)cc1 : 49.2
COc1ccc(-c2cnc3oc4ccc(=O)n(-c5ccc(NC(=O)CN6CCNCC6)cc5)c4c3c2)cn1 : 32
C=CC(=O)Nc1cccc(-n2c(=O)ccc3oc4ccc(-c5ccc(OC)nc5)cc4c32)c1 : 67.3
COc1ccc(-c2cnc3oc4ccc(=O)n(-c5ccc(NC(=O)CN6CCCCC6)cc5)c4c3c2)cn1 : 55

So what does the record say about inhibition for "C=CC(=O)Nc1cccc(-n2c(=O)ccc3oc4ccc(-c5cccnc5)cc4c32)c1" ? 86.8

So what does the record say about inhibition for "CN(C)CC(=O)Nc1ccc(-n2c(=O)ccc3oc4ccc(-c5cccc6[nH]ccc56)cc4c32)cc1" ? 47.2

So what does the record say about inhibition for "CN(C)CC(=O)Nc1ccc(-n2c(=O)ccc3oc4ccc(C5CCNCC5)cc4c32)cc1" ? 33.1

====

Recorded inhibition, one value per entry.
- targetOrSystem: Tyrosine-protein kinase BTK (Homo sapiens)
- conditionParameters: at 200 nM
Just the number please, in %, no unit attached.

C=CC(=O)Nc1ccc(-n2c(=O)ccc3oc4ccc(-c5ccc(F)nc5)cc4c32)cc1 : 32.1
CN(C)CC(=O)Nc1ccc(-n2c(=O)ccc3oc4ccc(-c5cccnc5)cc4c32)cc1 : 63.4

Here is the next item to consider.
Lab request: please report inhibition under test system Tyrosine-protein kinase BTK (Homo sapiens) for "COc1ccc(-c2cnc3oc4ccc(=O)n(-c5ccc(NC(=O)CN(C)C)cc5)c4c3c2)cn1" 58.8

====

- targetOrSystem: Phosphatidylinositol 4,5-bisphosphate 3-kinase catalytic subunit delta isoform (Homo sapiens)
- testSummary: Inhibition of PI3Kdelta (unknown origin) at 200 nM by ADP-gloassay relative to control
Activity calls are given as the source filed them. The rule behind the calls is not given here.
resultType: inhibition

C=CC(=O)Nc1cccc(-n2c(=O)ccc3oc4ccc(-c5ccc(OC)nc5)cc4c32)c1 : 11.3%
C=CC(=O)Nc1cccc(-n2c(=O)ccc3oc4ccc(-c5cccnc5)cc4c32)c1 : 58.1%
COc1ccc(-c2cnc3oc4ccc(=O)n(-c5ccc(NC(=O)CN6CCNCC6)cc5)c4c3c2)cn1 : inactive
CN(C)CC(=O)Nc1ccc(-n2c(=O)ccc3oc4ccc(-c5cccnc5)cc4c32)cc1 : inactive
COc1ccc(-c2cnc3oc4ccc(=O)n(-c5ccc(NC(=O)CN6CCCCC6)cc5)c4c3c2)cn1 : inactive

So what does the record say about inhibition for "C=CC(=O)Nc1ccc(-n2c(=O)ccc3oc4ccc(-c5ccc(F)nc5)cc4c32)cc1" ? 31.7%

So what does the record say about inhibition for "CN(C)CC(=O)Nc1ccc(-n2c(=O)ccc3oc4ccc(-c5cccc6[nH]ccc56)cc4c32)cc1" ? inactive

So what does the record say about inhibition for "C=CC(=O)Nc1ccc(-n2c(=O)ccc3oc4ncc(-c5cccnc5)cc4c32)cc1" ? 34.2%

So what does the record say about inhibition for "CN(C)CC(=O)Nc1ccc(-n2c(=O)ccc3oc4ccc(C5CCN(C(=O)OC(C)(C)C)CC5)cc4c32)cc1" ? inactive

====

Heads up, these compounds all have pIC50 values measured for Tyrosine-protein kinase BTK (Homo sapiens).
The read-out pIC50 is expressed as -log10 of concentration in moles per litre.

COc1ccc(-c2cnc3oc4ccc(=O)n(-c5ccc(NC(=O)CN(C)C)cc5)c4c3c2)cn1 : 6.82

Lab request: please report pIC50 under test system Tyrosine-protein kinase BTK (Homo sapiens) for "CN(C)CC(=O)Nc1ccc(-n2c(=O)ccc3oc4ccc(-c5ccc(O)cc5)cc4c32)cc1" 6.82

Lab request: please report pIC50 under test system Tyrosine-protein kinase BTK (Homo sapiens) for "CN(C)CC(=O)Nc1ccc(-n2c(=O)ccc3oc4ccc(-c5cccnc5)cc4c32)cc1" 7.30

Lab request: please report pIC50 under test system Tyrosine-protein kinase BTK (Homo sapiens) for "C=CC(=O)Nc1cccc(-n2c(=O)ccc3oc4ccc(-c5cccnc5)cc4c32)c1" 7.13

====

Recorded IC50, one value per entry.
- Tested on: Raji
- testSummary: Antiproliferative activity against human Raji cells after 48 hrs by CCK8 assay
- Format: functional, cell-based
Just the number please, in µM, no unit attached.

C=CC(=O)Nc1ccc(-n2c(=O)ccc3oc4ccc(-c5ccc(F)nc5)cc4c32)cc1 : 7.3
C=CC(=O)Nc1ccc(-n2c(=O)ccc3oc4ncc(-c5cccnc5)cc4c32)cc1 : 7.4
COc1ccc(-c2cnc3oc4ccc(=O)n(-c5ccc(NC(=O)CN6CCNCC6)cc5)c4c3c2)cn1 : 33.7
C=CC(=O)Nc1cccc(-n2c(=O)ccc3oc4ccc(-c5cccnc5)cc4c32)c1 : 2.1
C=CC(=O)Nc1cccc(-n2c(=O)ccc3oc4ccc(-c5ccc(F)nc5)cc4c32)c1 : 2.2
CN(C)CC(=O)Nc1ccc(-n2c(=O)ccc3oc4ccc(C5CCN(C(=O)OC(C)(C)C)CC5)cc4c32)cc1 : 7

So what does the record say about IC50 for "C=CC(=O)Nc1cccc(-n2c(=O)ccc3oc4ccc(-c5ccc(OC)nc5)cc4c32)c1" ? 2.4
